Test system: PriA–SSB C-terminal tail interaction (Klebsiella pneumoniae)
TEST_NAME: blocks PriA binding to SSB C-terminal tail, primary screen, biochemical, AlphaScreen (AID 1272365);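 also: plate controls were negative control peptide for no effect and reference peptide for full effect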
MEASUREMENT_CONDITIONS: AlphaScreen SSBct-PriA binding, biotinylated peptide; at 33 µM
Among all 430,000 compounds or so, about 2,600 (0.6%) were called active. Rule as the data show it: active = inhibition mostly above about 37% (no sharp cut-off); inactive = mostly below about 20%. For the sample, actives were picked, then their nearest neighbours and some compounds at random.
Hello, when you answer, please use one of the following outcomes: active, inactive

| MOLECULE | CLASS |
| --- | --- |
| O=C(CN1CC(=O)Oc2ccccc21)OCC(=O)c1ccc(Cl)c(Cl)c1 | active |
| COc1ccc(N2CCn3c(SCC(=O)Nc4ccc(OC)cc4OC)nnc32)cc1 | inactive |
| O=C1COc2ccc(C(=O)COC(=O)c3ccccc3Cl)cc2N1 | inactive |
| O=c1[nH]c(=S)[nH]c2sc3c(c12)CCC3 | inactive |
| CN(C)c1ccc(/C=N\NC(=O)c2ccccc2O)cc1 | inactive |

Please turn your attention to the following entry.
Problem: Fill in: this test's call for "COc1ccc(-c2cnc(SCC(=O)Nc3nccs3)n2-c2cccc(Cl)c2)cc1" is ___
Result: inactive

----------
System: PriA–SSB C-terminal tail interaction (Klebsiella pneumoniae)
TEST_NAME: blocks PriA binding to SSB C-terminal tail, primary screen, biochemical, AlphaScreen (AID 1272365);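 also: plate controls were negative control peptide for no effect and reference peptide for full effect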
MEASUREMENT_CONDITIONS: AlphaScreen SSBct-PriA binding, biotinylated peptide; at 33 µM, stronger effect = higher value
In all, about 430,000 compounds went through this assay and about 2,600 (0.6%) were called active. This excerpt belongs to a sample that is enriched for actives.
MEASURE: inhibition (%)
Give the number; % is assumed, so skip it.

Reference set (6 entries):
| COMPOUND | ENDPOINT_UNIT | VAL |
| --- | --- | --- |
| O=C(Nc1cc2ccccc2cc1NC(=O)c1ccc(N2C(=O)CCC2=O)cc1)c1ccc(N2C(=O)CCC2=O)cc1 | % | 0 |
| CCn1cc(NC(=O)N2CCCc3ccccc32)c2ccccc21 | % | 2 |
| O[C@H](COc1cccc(Oc2ccccc2)c1)CN1CCN(c2ccccc2)CC1 | % | 31 |
| COCCN1CCCc2ccc(NC(=O)c3ccc(OC)cc3)cc21 | % | 45 |
| COCCn1c(SCc2nc(-c3ccc(F)cc3)no2)nc2ccsc2c1=O | % | -36 |
| Cc1cc([N+](=O)[O-])c(N2CCC[C@@H]2C(=O)O)c([N+](=O)[O-])c1 | % | -16.2 |

Problem: # inhibition lookup, item Cc1ccc(NC(=O)C(=O)NCC(c2ccc(F)cc2)N2CCN(C)CC2)cc1Cl (stereo unspecified)
Result: -4

Problem: And what about the compound "O=C(Nc1nc(-c2ccc(Cl)cc2Cl)cs1)c1ccc(N2C(=O)CCC2=O)cc1" ?
Result: 64

Problem: And what about the compound Cc1ccc(NC2=NC(c3ccccc3)n3c(nc(C)cc3=O)N2)cc1 (stereo unspecified) ?
Result: -5.57

Problem: And what about the compound COc1ccc(/C=N\N=C2\NC(=O)C(CC(=O)NC(N)=O)S2)c(C(=O)O)c1OC (stereo unspecified) ?
Result: -10

----------
Test system: PriA–SSB C-terminal tail interaction (Klebsiella pneumoniae)
TEST_NAME: blocks PriA binding to SSB C-terminal tail, primary screen, biochemical, AlphaScreen (AID 1272365);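 also: plate controls were negative control peptide for no effect and reference peptide for full effect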
MEASUREMENT_CONDITIONS: AlphaScreen SSBct-PriA binding, biotinylated peptide; at 33 µM, stronger effect = higher value
The campaign covered roughly 430,000 compounds. About 2,600 (0.6%) were called active. The sample holds actives, similar compounds and a random draw of the others, so the mix is not that of the screen.
A collection of compounds and their measured inhibition
Give the number; % is assumed, so skip it.

Reference set (5 entries):
| SMILES_REPRESENTATION | MEASURE | VAL |
| --- | --- | --- |
| O=C(Nc1ccc([N+](=O)[O-])cc1Br)C12CC3CC(CC(C3)C1)C2 | inhibition | -8 |
| O=C1CCCC(=O)N1CCS(=O)(=O)N1CCC(c2nnc(-c3ccco3)s2)CC1 | inhibition | -4 |
| O=C(CSc1ncc(-c2ccccc2)n1-c1ccc(F)cc1)N1CCCC1 | inhibition | 43 |
| CCCN1C(=O)C(C)(C)COc2ccc(N)cc21 | inhibition | 32 |
| CC(C)Sc1nc(N2CCCC2)c2cnn(CCNC(=O)c3cccs3)c2n1 | inhibition | -8 |

Problem: # inhibition lookup, item "CCOc1cc(C=NNC(=O)c2cccc(S(=O)(=O)N3CCOCC3)c2)ccc1OCC(=O)N(C)C"
Result: -12.5

Problem: And what about the compound "COc1cc(NS(=O)(=O)c2ccc(NC(=O)c3cc4c(ccc5ccccc54)oc3=O)cc2)ncn1" ?
Result: -16

Problem: And what about the compound "Cc1cc(S(=O)(=O)N2CCOC23CCN(C(=O)c2cc(=O)c4ccccc4o2)CC3)ccc1F" ?
Result: -9

Problem: And what about the compound "COc1ccc(S(=O)(=O)NCc2ccccc2-c2ccsc2)cc1Cl" ?
Result: -26

Problem: And what about the compound "CC(=NNC(=O)c1ccc(F)cc1)c1ccccn1" ?
Result: -1.36
